Reported protein stability index values are given for each entry in this list.
B1: CLCN6 (parent)
chain: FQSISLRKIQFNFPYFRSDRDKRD

Variants of: B1
test summary: protein stability index of a GFP-peptide fusion (GPS, HEK-293T) (PSI 1-6); higher = more stable;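 also: lentivirally expressed fusions sorted by FACS into six bins by GFP to DsRed ratio, PSI derived from sequencing read proportions per bin multiplied by bin number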
assay context: c terminus: a fixed tail appended

Here are 10 variants together with their reported answers.
FQSISLRKIQFNFPYFISDRDKRD [R17I]: 1.56
FQSISLRKIQFNFPYWRSDRDKRD [F16W]: 2.08
FQSISLRKIQFNAPYFRSDRDKRD [F13A]: 1.84
FQSISLEKIQFNFPYFRSDRDKRD [R7E]: 2.56
FQSDSLRKIQFNFPYFRSDRDKRD [I4D]: 2.05
FQSISLRKIQFNFPYFRSDRDKRT [D24T]: 2.21
FQSISLRKIQFNFPYFRSDRDCRD [K22C]: 3.83
FQSISLRNIQFNFPYFRSDRDKRD [K8N]: 2.18
FQSISLRKIQFNFPYFSSDRDKRD [R17S]: 1.5
FQSISLRTIQFNFPYFRSDRDKRD [K8T]: 1.44

Exercise: Supply measured protein stability index of FQSISLRKIQFNFQYFRSDRDKRD [P14Q] in your reply.
Key: 2.5

Exercise: Supply measured protein stability index of FQSISLLKIQFNFPYFRSDRDKRD [R7L] in your reply.
Key: 1.37

Data credit: the supplement of paper PMC10567573
